meta.source: the supplement of paper PMC10126150

Parameter: switch fluorescence ratio. Scope: all listed entries.
- System: ATP;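 note: ATP exposure 15 min at 22 °C before imaging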
- test protocol: switch fluorescence ratio, 500 uM ATP over buffer (Cy3 cluster intensity, sum of 5 cycles each) (fold (ratio)); higher = stronger signal-on switching upon ATP binding; sequences stand for … in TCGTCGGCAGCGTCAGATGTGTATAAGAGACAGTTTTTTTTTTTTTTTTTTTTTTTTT…TC
- condition: aptamer strand: ATP DNA aptamer (quencher-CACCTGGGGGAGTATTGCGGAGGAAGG + anchor), 100 nM annealed; ATP concentration: 500 uM

[
  {
    "residue sequence": "TAGGTTTGTG",
    "switch fluorescence ratio": 0.993
  },
  {
    "residue sequence": "ATAAAAAAAG",
    "switch fluorescence ratio": 1.05
  },
  {
    "residue sequence": "CTCTTTTTTT",
    "switch fluorescence ratio": 0.991
  },
  {
    "residue sequence": "AAGGAATAGG",
    "switch fluorescence ratio": 0.98
  },
  {
    "residue sequence": "CTGGGGGGAG",
    "switch fluorescence ratio": 1.01
  },
  {
    "residue sequence": "CATAGTGATC",
    "switch fluorescence ratio": 1.05
  },
  {
    "residue sequence": "GGTTTGGATA",
    "switch fluorescence ratio": 0.985
  },
  {
    "residue sequence": "GTGGAGGGTT",
    "switch fluorescence ratio": 1.03
  },
  {
    "residue sequence": "TCATTTATGG",
    "switch fluorescence ratio": 0.999
  },
  {
    "residue sequence": "TTTATTGTT",
    "switch fluorescence ratio": 0.99
  },
  {
    "residue sequence": "GGATTGGGAC",
    "switch fluorescence ratio": 1.02
  },
  {
    "residue sequence": "TAATAGGGGT",
    "switch fluorescence ratio": 1
  },
  {
    "residue sequence": "ATTTAAGGGG",
    "switch fluorescence ratio": 0.995
  },
  {
    "residue sequence": "AGGAATGTTT",
    "switch fluorescence ratio": 0.985
  },
  {
    "residue sequence": "TGGTTCCGGG",
    "switch fluorescence ratio": 1.01
  },
  {
    "residue sequence": "TTTGTTAACG",
    "switch fluorescence ratio": 0.99
  }
]
